Data provenance: ChEMBL document CHEMBL3885861

Here, each record is paired with measured Ht data.
# Species: Rattus norvegicus
# PROTOCOL NOTES: Open TG-GATES - Regimen: Single
# Format: toxicity, organism-based, Sprague-Dawley
# Parameters: regimen Single, gender Male, age 6 weeks
# CONDITION: in vivo, po, 0 mg/kg, 9 h, tissue Blood, route gavage, dose level Control
Give just the numeric value; % need not be written.

- COc1ccc2[nH]c([S+]([O-])Cc3ncc(C)c(OC)c3C)nc2c1 (configuration not stated): 38.6
- CN(C)CCCN1c2ccccc2CCc2ccc(Cl)cc21: 41
- CC1=C(/C=C/C(C)=C/C=C/C(C)=C/CO)C(C)(C)CCC1: 38.3
- CN1C(=O)CN=C(c2ccccc2)c2cc(Cl)ccc21: 41.5
- NC(N)=Nc1nc(CSCCC(N)=NS(N)(=O)=O)cs1: 36.7

Prompt: Answer with the recorded Ht of `COC1=CC(=O)C[C@@H](C)[C@]12Oc1c(Cl)c(OC)cc(OC)c1C2=O` only.
Completion: 39.7

Prompt: Answer with the recorded Ht of CCOC(=O)CCC(=O)O[C@H]1[C@H](O[C@@H]2[C@@H](C)[C@H](O[C@H]3C[C@@](C)(OC)[C@@H](O)[C@H](C)O3)[C@@H](C)C(=O)O[C@H](CC)[C@@](C)(O)[C@H](O)[C@@H](C)C(=O)[C@H](C)C[C@@]2(C)O)O[C@H](C)C[C@@H]1N(C)C [ERYTHROMYCIN ETHYLSUCCINATE] only.
Completion: 39.6

---

# Organism: Rattus norvegicus
# PROTOCOL NOTES: Open TG-GATES - Regimen: Single
# Format: toxicity, organism-based, Sprague-Dawley
# Set-up: regimen Single, gender Male, age 6 weeks
# CONDITION: in vivo, po, 1000 mg/kg, 9 h, tissue Plasma, route gavage, dose level High
Here, each record is paired with measured TBIL data.
Give just the numeric value; mg/dL need not be written.

# example entries with known answers
• NC(N)=Nc1nc(CSCCC(N)=NS(N)(=O)=O)cs1 = 0.1
• CC(C)OC(=O)C(C)(C)Oc1ccc(C(=O)c2ccc(Cl)cc2)cc1 [FENOFIBRATE] = 0.048
• COc1ccc2[nH]c([S+]([O-])Cc3ncc(C)c(OC)c3C)nc2c1 (stereo not given) = 0.1

Prompt: Answer with the recorded TBIL of `COC1=CC(=O)C[C@@H](C)[C@]12Oc1c(Cl)c(OC)cc(OC)c1C2=O` only.
Completion: 0.1

Prompt: Answer with the recorded TBIL of CCOC(=O)CCC(=O)O[C@H]1[C@H](O[C@@H]2[C@@H](C)[C@H](O[C@H]3C[C@@](C)(OC)[C@@H](O)[C@H](C)O3)[C@@H](C)C(=O)O[C@H](CC)[C@@](C)(O)[C@H](O)[C@@H](C)C(=O)[C@H](C)C[C@@]2(C)O)O[C@H](C)C[C@@H]1N(C)C [ERYTHROMYCIN ETHYLSUCCINATE] only.
Completion: 0.036

---

# Organism: Rattus norvegicus
# PROTOCOL NOTES: Open TG-GATES - Regimen: Daily Repeat
# Format: toxicity, organism-based, Sprague-Dawley
# Design: regimen Daily Repeat, gender Male, age 6 weeks
# CONDITION: in vivo, po, 10 mg/kg, […], tissue Plasma, route gavage, dose level Low, time 14 day
ATTRIBUTE MEASURED: gamma-GTP (IU/L)
Give just the numeric value; IU/L need not be written.

* CC1=C(/C=C/C(C)=C/C=C/C(C)=C/CO)C(C)(C)CCC1 [RETINOL] | 0.8
* CN(C)CCCN1c2ccccc2CCc2ccccc21 [IMIPRAMINE] | 0.4
* CN(C)CCN(Cc1cccs1)c1ccccn1 | 1

# ---- query molecule ----
Prompt: Answer with the recorded gamma-GTP of CC(C)OC(=O)C(C)(C)Oc1ccc(C(=O)c2ccc(Cl)cc2)cc1 [FENOFIBRATE] only.
Completion: 0.8
